# targetOrSystem: recombinant ABP-20 (Prunus persica, UniProt O04011, DUP151-151)
# Construct: made in house; host or cells: E. coli BL21 (DE3), pET11b
# Sequence (O04011 other isoform, or with tags, fused parts or gaps DUP151-151): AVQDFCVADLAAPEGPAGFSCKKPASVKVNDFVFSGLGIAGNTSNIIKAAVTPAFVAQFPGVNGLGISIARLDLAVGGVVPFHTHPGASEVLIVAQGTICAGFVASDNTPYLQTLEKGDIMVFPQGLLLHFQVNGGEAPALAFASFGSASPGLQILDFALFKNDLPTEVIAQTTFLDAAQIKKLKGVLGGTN
# testDetails: NADH oxidase activity of IEF-purified recombinant ABP-20 (dNOX)
# Format: biochemical
assayMetric: Effect on activity of recombinant ABP-20

{"molecule": "COc1cccc2c1C(=O)c1c(O)c3c(c(O)c1C2=O)C[C@@](O)(C(=O)CO)C[C@@H]3O[C@H]1C[C@H](N)[C@H](O)[C@H](C)O1", "targetOrSystem": "recombinant ABP-20 (Prunus persica, UniProt O04011, DUP151-151)", "obsValue": "inhibited the activity"}
{"molecule": "N.N.[Cl][Pt][Cl] [Cis-platinum]", "targetOrSystem": "recombinant ABP-20 (Prunus persica, UniProt O04011, DUP151-151)", "obsValue": "inhibited the activity"}
{"molecule": "O=C(O)COc1cccc(Cl)c1Cl", "targetOrSystem": "recombinant ABP-20 (Prunus persica, UniProt O04011, DUP151-151)", "obsValue": "without effect"}
{"molecule": "O=S(=O)(O)c1cc[c]([Hg][Cl])cc1", "targetOrSystem": "recombinant ABP-20 (Prunus persica, UniProt O04011, DUP151-151)", "obsValue": "inhibited"}
{"molecule": "CC[C@@H](C)C(=O)O[C@H]1C(=O)O[C@@H]2C[C@H]3C(C)=CC(=O)[C@@H](O)[C@]3(C)[C@H]3[C@@H](O)[C@H](O)[C@]4(C)OC[C@]32[C@@H]14", "targetOrSystem": "recombinant ABP-20 (Prunus persica, UniProt O04011, DUP151-151)", "obsValue": "without effect"}
{"molecule": "CC1=CC(=O)[C@@H](O)[C@]2(C)[C@H]3[C@@]4(O)OC[C@]35[C@H]([C@@H](C)[C@H]4O)[C@@H](O)C(=O)O[C@@H]5C[C@@H]12", "targetOrSystem": "recombinant ABP-20 (Prunus persica, UniProt O04011, DUP151-151)", "obsValue": "inhibited the activity"}
{"molecule": "O=C(O)c1cc[c]([Hg][Cl])cc1", "targetOrSystem": "recombinant ABP-20 (Prunus persica, UniProt O04011, DUP151-151)", "obsValue": "inhibited"}

====

# reported NADH oxidase activity; entries follow
# targetOrSystem: recombinant ABP-20 (Prunus persica, UniProt O04011, DUP151-151)
# Construct: made in house; host or cells: E. coli BL21 (DE3), pET11b
# testDetails: NADH oxidase activity of IEF-purified recombinant ABP-20 (dNOX)
# Type: biochemical
# recordedConditions: addition 1 μM; average of 3 determinations ± SD; None = 0.1 ± 0.08

{"molecule": "O=C(O)COc1ccc(Cl)cc1Cl", "NADH oxidase activity / µmol/min/mg": 0.8}
{"molecule": "COc1cccc2c1C(=O)c1c(O)c3c(c(O)c1C2=O)C[C@@](O)(C(=O)CO)C[C@@H]3O[C@H]1C[C@H](N)[C@H](O)[C@H](C)O1", "NADH oxidase activity / µmol/min/mg": 0.2}
{"molecule": "CC[C@@H](C)C(=O)O[C@H]1C(=O)O[C@@H]2C[C@H]3C(C)=CC(=O)[C@@H](O)[C@]3(C)[C@H]3[C@@H](O)[C@H](O)[C@]4(C)OC[C@]32[C@@H]14", "NADH oxidase activity / µmol/min/mg": 0.65}
{"molecule": "N.N.[Cl][Pt][Cl] [Cis-platinum]", "NADH oxidase activity / µmol/min/mg": 0.2}
{"molecule": "CC1=CC(=O)[C@@H](O)[C@]2(C)[C@H]3[C@@]4(O)OC[C@]35[C@H]([C@@H](C)[C@H]4O)[C@@H](O)C(=O)O[C@@H]5C[C@@H]12", "NADH oxidase activity / µmol/min/mg": 0.2}
{"molecule": "O=C(O)COc1cccc(Cl)c1Cl", "NADH oxidase activity / µmol/min/mg": 0.15}
{"molecule": "O=C(O)Cc1c[nH]c2ccccc12", "NADH oxidase activity / µmol/min/mg": 0.8}
